# target.under.test: pMHC complex (neoepitope/HLA-A0201) on T2 cells (Homo sapiens, UniProt P04439, D140Y/D185E/D98H/E176V/E277Q/G131W/G231S/I119V/I121R/I166T/I218V/L300P/L318F/N151K/N90K/P208A/P217A/Q86G/Q94H/R138H/R169H/T345S)
# Construct: endogenous in cells; host or cells: T2 cells
# test.description: T2 stability assay of pMHC complex
# Assay type: binding
# run.conditions: T2 cells, 50 µg epitope + 3 µg β2M 18 h, 5 µg/mL brefeldin A 1 h, then 0, 6, 12, 18, 24 h at 37 °C; PE-HLA-A2 flow cytometry
measured.quantity: DC50 (time required for 50% dissociation of the pMHC complex stabilized at t = 0 h)

sequence.record: FLGITATVV [mutABCA2L2]
value: >18 h
--
sequence.record: PLLPVTCGV [mutSP140]
value: >24 h
--
sequence.record: SLIISVDGV [mutSTOML2]
value: >18 h
--
sequence.record: FIGITATVV [mutABCA2]
value: <18 h
--
sequence.record: SVIISVDGV [mutSTOM]
value: <18 h
